Where do these numbers come from? They come from paper PMC9810272.

Target: yeast Tango2p (Saccharomyces cerevisiae, UniProt P53275)
Sequence (P53275 whole entry): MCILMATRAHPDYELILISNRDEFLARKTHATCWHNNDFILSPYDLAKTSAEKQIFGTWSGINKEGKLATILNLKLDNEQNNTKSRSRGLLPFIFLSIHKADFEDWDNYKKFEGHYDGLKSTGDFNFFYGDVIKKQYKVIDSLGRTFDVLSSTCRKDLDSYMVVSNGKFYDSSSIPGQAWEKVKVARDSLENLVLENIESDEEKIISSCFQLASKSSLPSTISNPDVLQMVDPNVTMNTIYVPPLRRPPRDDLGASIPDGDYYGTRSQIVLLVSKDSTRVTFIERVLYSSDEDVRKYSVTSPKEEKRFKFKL
Assay: UV-vis difference spectra titration
Format: binding
observation_type: pKd
Give bare numbers, as −log10 of the molar value.

Incoming: # get_value(readout='pKd', item= C=CC1=C(C)C2=Cc3c(C=C)c(C)c4[n]3[Fe][n]3c(c(C)c(CCC(=O)O)c3=CC3=NC(=C4)C(C)=C3CCC(=O)O)=CC1=N2 [ferric haem] )
Outgoing: 4.41
